# study-target: HIV-1 92RW020 envelope protein (Env) on pseudovirus (HIV-1 isolate 92RW020)
# measurement-description: cell-based or functional assay
Reported IC50 (µg/mL), pseudovirus neutralization values for a set of binders
Enter your answer as a number in µg/mL; do not include the unit.

Before answering, review these 2 worked examples.
[[record]]
binder = "1496_C09 (PG9) (TCN-109) (antibody, V domains shown) VH: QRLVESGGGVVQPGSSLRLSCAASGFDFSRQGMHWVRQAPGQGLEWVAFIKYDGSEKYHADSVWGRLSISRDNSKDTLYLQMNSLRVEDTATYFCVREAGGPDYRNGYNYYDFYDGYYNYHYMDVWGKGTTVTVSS VL: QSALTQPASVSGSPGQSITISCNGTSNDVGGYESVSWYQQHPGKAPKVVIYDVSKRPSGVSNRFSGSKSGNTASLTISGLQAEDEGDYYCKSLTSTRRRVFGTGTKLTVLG"
metric_name = "IC50 (µg/mL), pseudovirus neutralization"
endpoint_value = 0.06

[[record]]
binder = "1495_C14 (PGC14) (antibody, human IgG1, lambda, V domains shown) VH: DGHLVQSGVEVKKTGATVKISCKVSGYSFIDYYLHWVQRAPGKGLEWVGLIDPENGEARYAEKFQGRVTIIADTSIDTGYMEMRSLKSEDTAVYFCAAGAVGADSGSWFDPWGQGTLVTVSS VL: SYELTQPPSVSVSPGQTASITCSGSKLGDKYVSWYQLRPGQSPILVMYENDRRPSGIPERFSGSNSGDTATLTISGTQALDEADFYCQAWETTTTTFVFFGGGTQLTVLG"
metric_name = "IC50 (µg/mL), pseudovirus neutralization"
endpoint_value = 28.6


Q: Check the records and state IC50 (µg/mL), pseudovirus neutralization for 1443_C16 (PG16) (TCN-116) (antibody, V domains shown) VH: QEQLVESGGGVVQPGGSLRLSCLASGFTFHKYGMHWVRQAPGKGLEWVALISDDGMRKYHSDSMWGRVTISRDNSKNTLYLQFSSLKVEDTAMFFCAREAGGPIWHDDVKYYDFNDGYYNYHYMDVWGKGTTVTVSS VL: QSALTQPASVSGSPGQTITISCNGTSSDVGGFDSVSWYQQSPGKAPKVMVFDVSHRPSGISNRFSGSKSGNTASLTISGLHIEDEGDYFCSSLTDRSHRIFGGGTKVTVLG
A: 0.004
